Source: PubChem BioAssay (NCI)

- System: HCC-2998 colon
- assay_text: NCI-60 one-dose screen, 48 h (100 = growth as untreated, 0 = no growth, -100 = all killed)
- condition_context: 10 µM unless noted
The panel holds about 83,000 compounds, 20% with a hit somewhere; the sample as a whole holds those more often.
Mark False for growth values under 50%, and True for everything at or above.

## Input Given the entry CCCCCCNC(=O)Oc1ccc(/C(=C(\C)c2ccc(OC)cc2)c2ccc(OCCN3CCCCC3)cc2)cc1 , answer whether its growth meets or surpasses 50%.
## Output True

## Input Check if growth >= 50% (inclusive). Item: O=CN1N=C(c2ccc(Nc3ccnc4cc(Cl)ccc34)cc2)CC1c1ccccc1 (stereo unspecified)
## Output False

## Input # bool: growth of Cc1ccc2c(n1)C(=O)C(Cl)=C(Nc1ccccc1C(C)C)C2=O >= 50%
## Output True

## Input # check: growth of COC(=O)C(Cc1ccccc1)NC(=O)NC(=O)NC(=O)CI (stereo unspecified) is greater than or equal to 50%
## Output True

## Input Is it the case that O=c1cc(SCc2ccccc2)nc[nH]1 has growth reaching or exceeding 50%?
## Output True

## Input Answer whether growth of c1cc(NCCc2ccncc2)nc(-n2cnc3ccccc32)c1 is greater than or equal to 50%.
## Output True

## Input Exam item: decide whether the reported growth for COc1cc(/C=C/c2ccccc2)cc(OC)c1 is at least 50%.
## Output True

## Input Decide: is the reported value of growth for Cc1ccccc1C(=O)NN equal to or greater than 50%?
## Output True

## Input Tell me whether growth is at least 50% here: CCOC(=O)Nc1ccc(-c2nc(-c3cccc(OC)c3)c(-c3ccnc(Br)c3)[nH]2)cc1
## Output False

## Input Textbook exercise: given the entry NCCNc1nc2ccccc2c2c(=O)c3cc(F)ccc3sc12 , state whether its growth is greater than or equal to 50%.
## Output False

---

- Test system: A498 renal
- assay_text: NCI-60 one-dose screen, 48 h
- condition_context: 10 µM unless noted
About 83,000 compounds went through this panel and 20% of them were active in at least one assay; those are over-represented in the sample as a whole. Activity calls are given as the source filed them. The calls were made as follows: active = growth percent below 10; inactive = the rest.
One label from this list, please: Yes (active), No (inactive)

## Input Identify the outcome logged in this assay for the compound shown: O=C1c2ccccc2NC(n2sc3ccccc3c2=O)N1c1ccccc1 (stereo not given)
## Output No

## Input Assay result, entry O=C(N/N=C/c1c(Cl)cccc1Cl)c1ccc(C(F)(F)F)nc1Nc1cccc(C(F)(F)F)c1 — outcome?
## Output Yes

## Input Assay result, entry COc1c(B(O)O)cc(C)cc1-c1nc2ccc3[nH]ncc3c2c2c1CCCC2 — outcome?
## Output No

## Input Could you kindly confirm the outcome this assay logged for N#C/C(=C\c1ccc(F)cc1)n1nc2cccc(F)c2n1 ?
## Output No

## Input Identify the outcome logged in this assay for the compound shown: CCOC(=O)c1nc(Nc2ccc(C(C)=O)cc2)sc1C
## Output No

## Input # lookup: test call for COc1cc(CCC[P+](c2ccccc2)(c2ccccc2)c2ccccc2)c(OC)c2c1OCO2
## Output No

## Input What classification did COc1ccc2sc3c(NCCCNCCO)nc4ccccc4c3c(=O)c2c1 end up with in this test?
## Output No

## Input Assay result, entry Fc1cc(-c2nnc3sc(-c4ccc(Cl)cc4Cl)nn23)c(Cl)cc1Cl — outcome?
## Output No

## Input What was the test verdict on CCc1ccc(Oc2c(-c3ccc(OCc4ccc(Cl)cc4)cc3O)n[nH]c2C(F)(F)F)cc1 ?
## Output No

## Input Short answer needed: outcome of this test for Cc1ccc(C(=O)NN2C(=O)CSC2c2cccc([N+](=O)[O-])c2)cn1 (stereo not given) ?
## Output No

## Input So what was the verdict on O=c1c2cc(F)ccc2sc2c(NCCO)nc3ccccc3c12 in this test?
## Output No

## Input Dear colleague, could you share the recorded outcome for CC1Cc2ccccc2N1NC(=O)c1ccc(Cl)c(S(N)(=O)=O)c1 (stereo not given) when you have a moment?
## Output No

## Input For COc1ccc(-c2nnc(COc3ccc(Cl)cc3Cl)o2)cc1OC , what call appears in the results of this test?
## Output No

## Input Write down the call the test reported for this compound. Item: COC(=O)/C=C1\S/C(=N\Nc2ccc([N+](=O)[O-])cc2[N+](=O)[O-])N(C2CCCCC2)C1=O
## Output No

## Input Hi team, can someone confirm the assay call for Cc1cc(C)c(-c2c(N)cc(Br)cc2Br)c(N)c1 ?
## Output No

## Input I'd appreciate the recorded outcome for O=C(CCc1nnc(-c2c(Cl)cccc2Cl)o1)c1nc2ccccc2[nH]1 from this test.
## Output No

## Input Query: recorded result category for C=C1C(=O)O[C@H]2[C@H]1CC/C(COC(=O)CCSSCCC(=O)OC/C1=C/CC[C@@]3(C)O[C@H]3[C@H]3OC(=O)C(=C)[C@@H]3CC1)=C\CC[C@@]1(C)O[C@@H]21 in this test
## Output No

## Input What outcome does the record of this test show for CCOC(=O)C1=C(N)Oc2c(sc3c(CC)cccc23)C1c1ccc(F)cc1 (stereo not given) ?
## Output Yes

## Input Status in this test for COc1cc(C2CC(c3cccc(Br)c3)=NN2C(C)=O)cc(OC)c1OC (stereo not given) ?
## Output No

## Input So what was the verdict on CCc1cccc2c1S/C(=C/c1ccc(Cl)cc1)C2=O in this test?
## Output No

---

- Test system: MDA-MB-435 melanoma
- assay_text: NCI-60 one-dose screen, 48 h (100 = growth as untreated, 0 = no growth, -100 = all killed)
- condition_context: 10 µM unless noted
The panel holds about 83,000 compounds, 20% with a hit somewhere; the sample as a whole holds those more often.
Returns one of condition met or condition not met; condition met when growth is >= 60%.

## Input Has Fc1cc(-c2nnc3sc(-c4ccc(Cl)cc4Cl)nn23)c(Cl)cc1Cl a recorded growth greater than or equal to 60%?
## Output condition met

## Input Check if growth >= 60% (inclusive). Item: O=c1n(Cc2ccc3ccccc3c2)ccn1Cc1ccc2ccccc2c1
## Output condition met

## Input Does growth meet or surpass 60% for Cc1nc(NC(=O)COc2ccc(/C=C3\Cc4ccc(Cl)cc4C3=O)cc2)sc1C ?
## Output condition met

## Input Reported growth reaches at least 60% for NC(=O)Nc1ccc2ncnc(Nc3ccc(Cl)cc3)c2c1 ?
## Output condition met

## Input Test whether the compound CN1CCN(Cc2ccc(NC(=O)c3cncc(C#Cc4cnccc4C#N)c3)cc2C(F)(F)F)CC1 records growth of 60% or higher.
## Output condition not met

## Input Is reported growth greater than or equal to 60% here: COc1cc(C)c(Cc2cnc(N)nc2N)cc1OC
## Output condition met

## Input Has COc1nc2ccc(C)cc2cc1-c1nc2c(cnn2-c2ccc(Br)cc2)c(=O)[nH]1 a recorded growth greater than or equal to 60%?
## Output condition not met

## Input Decide: is the reported value of growth for C[C@H](C(=O)Nc1ccc(S(N)(=O)=O)cc1)S(=O)(=O)c1ccccc1 equal to or greater than 60%?
## Output condition met

## Input Please tell me: is the compound O=C(O)c1cn(C2CC2)c2cc(N3CCN(C(=O)Nc4nc(-c5ccccc5)cs4)CC3)c(F)cc2c1=O at or over 60% in terms of growth?
## Output condition not met

## Input Is it the case that CCCCC[C@H](O)C/C=C1/C(=O)C=C[C@@H]1C/C=C\CCCC(=O)OC has growth reaching or exceeding 60%?
## Output condition not met

## Input Decide: is the reported value of growth for COc1nc2ccc(C)cc2cc1-c1nc2c(cnn2-c2ccccc2)c(=O)[nH]1 equal to or greater than 60%?
## Output condition not met

## Input Tell me whether growth is at least 60% here: COc1ccc(-c2cnc3ccccc3n2)cc1
## Output condition met

## Input Check this compound for growth at or above 60%: O=C(Oc1cccc2ccccc12)Oc1cccc2ccccc12
## Output condition met

## Input # check: growth of O=C1/C(=C/c2ccc(F)cc2)Sc2c(Br)cccc21 is greater than or equal to 60%
## Output condition met

## Input Entry COc1ccc(-c2nc3sc(-c4ccc(Cl)cc4)cn3n2)cc1 : is its growth no less than 60%?
## Output condition met

## Input Does the reported growth for C=C1C(=O)O[C@H]2[C@H]1CC/C(COC(=O)CSCC(=O)OC/C1=C/CC[C@@]3(C)O[C@H]3[C@H]3OC(=O)C(=C)[C@@H]3CC1)=C\CC[C@@]1(C)O[C@@H]21 fall at or above the 60% mark?
## Output condition not met

## Input Can Fc1cc2c(cc1Cl)N(c1ncnc3ccc(-c4cnc5cnccn45)cc13)CC2 be said to have growth at or above 60%?
## Output condition met

## Input Test whether the compound Cn1cc(C(=O)c2nc(-c3cn(C)c4ccc(F)cc34)no2)c2cc(F)ccc21 records growth of 60% or higher.
## Output condition met

## Input # check: growth of COc1ccc(C2NC(=O)C(C#N)c3c2sc2c(F)cccc32)c(OC)c1 (stereo not given) is greater than or equal to 60%
## Output condition not met

## Input Answer whether growth of O=C(Cc1ccc(F)c(Cl)c1)Nc1cc(C2(C(F)(F)F)CC2)nn1CC1CCCCC1 is greater than or equal to 60%.
## Output condition not met

## Input Decide: growth of COc1ccc(N)c(N)c1 >= 60%?
## Output condition met

## Input Reported growth reaches at least 60% for COc1ccc2c(c1)/C(=C/c1sc(=S)n(Cc3ccco3)c1O)C=N2 ?
## Output condition not met

## Input Is growth at least 60%? Consider NC1=C(c2nn[nH]n2)C(c2ccccc2Cl)c2ccc3ccccc3c2O1 (stereo not given)
## Output condition not met

## Input Evaluate CCCC1CCC(O)(C(C)(O)C(=O)NC2C(=O)N3NCCCC3C(=O)N(O)C(C)C(=O)N3NCCCC3C(=O)N3NCC(O)CC3C(=O)NC(C)C(=O)OC2C(C)C)OC1CC (stereo not given) : growth at minimum 60%?
## Output condition not met

## Input Could you tell me if the measured growth of COc1cc(CNS(=O)(=O)c2ccc(C)cc2)ccc1OCc1cn(-c2ccccc2)nn1 reaches 60% or more?
## Output condition met

## Input Does the reported growth for O=C(/C=C/c1cccc2ccccc12)c1ccc(NC(=O)c2ccccc2CN2C(=O)c3ccccc3C2=O)cc1 fall at or above the 60% mark?
## Output condition not met

## Input Check the entry O=C(O)CCC(=O)Nc1nnc(-c2ccccc2)s1 : does growth equal or exceed 60%?
## Output condition met

## Input Check if growth >= 60% (inclusive). Item: S=C(c1cccs1)N1CCN(c2cccc(Cl)c2)CC1
## Output condition met

## Input Kindly determine if growth recorded for COc1ccc(OC)c(/C=C/C(=O)N/N=C/c2ccccc2)c1 is above or exactly 60%.
## Output condition not met

## Input Threshold query (growth >= 60%) on CCOC(=O)Cn1c(C)c(/C=N/NC(=O)c2cc3c(ccc4ccccc43)o2)c2ccccc21
## Output condition not met

## Input growth >= 60% for BrCCCc1n(Cc2ccc3ccccc3c2)c2ccccc2[n+]1Cc1ccc2ccccc2c1 ?
## Output condition not met

## Input Hello, I need to know if CCc1ccccc1-n1c(N)c(C#N)c(-c2ccc(Cl)cc2)c(C#N)c1=O has measured growth not below 60%. Thanks!
## Output condition met

## Input Form field: growth at least 60%? Entry: Cc1cc(C)c(-c2c(N)cc(Br)cc2Br)c(N)c1
## Output condition not met

## Input Given CC/C=C\C[C@@H](O)C/C=C1/C(=O)C=C[C@H]1C/C=C\CCCC(=O)OC , state whether its growth is at least 60%.
## Output condition not met

## Input Say whether CCCCCCN(CCCCCC)c1ccc(/C=C2/SC(=O)NC2=O)c(C)c1 shows growth of 60% or more.
## Output condition met

## Input Threshold query (growth >= 60%) on CCCCN(C)N=Nc1ccc(C(N)=O)cc1
## Output condition met

## Input Is it the case that COc1ccccc1/C=C1\Oc2cc(OCCN3CCC(Cc4ccccc4)CC3)ccc2C1=O has growth reaching or exceeding 60%?
## Output condition met

## Input Could you verify whether the entry CN(C)CCS(=O)(=O)Nc1cc(-c2ccc3ncc(C#N)c(Nc4ccc(F)c(Cl)c4)c3c2)cnc1Cl shows growth of no less than 60%?
## Output condition not met

## Input Determine whether measured growth meets or exceeds 60% for CCN1C(=O)N(CC)C2Nn3c(s/c(=C\c4ccc([N+](=O)[O-])cc4)c3=O)=NC21 (stereo not given)
## Output condition met
